tested on: K-562 leukemia; assay: NCI-60 one-dose screen, 48 h (100 = growth as untreated, 0 = no growth, -100 = all killed); conditions: 10 µM unless noted
This is part of a sample that, as a whole, favours compounds with a hit. Of some 83,000 tested, about 20% had one in any assay.
Attribute Measured: growth (%)

INSERT INTO results (compound, output_unit, observed_measurement) VALUES
  ('O=C(O)COc1ccc([N+](=O)[O-])cc1Cl', '%', 99.5),
  ('CCCCCCNC(=O)Oc1ccc(/C(=C(/C)Cc2ccc(OC)cc2)c2ccc(OCCN(C)C)cc2)cc1', '%', -38.8),
  ('O=C1OC(c2ccc(-c3ccccc3)cc2)=C/C1=C/c1c2ccccc2cc2ccccc12', '%', 93.3),
  ('Cc1c(Cc2ccccc2)c(=O)oc2c(C)c(OCc3n[nH]c(=S)o3)ccc12', '%', 71.6),
  ('C=C(C)C(C(=O)OCC)(C(=O)OCC)C(C)C', '%', 116),
  ('CC(C)(CNC1CCCCC1)OC(=O)c1ccccc1', '%', 94.1),
  ('CC1=NN(c2cccc(Cl)c2)C(=O)/C1=C\c1cn(-c2nc(N3CCOCC3)nc(N3CCOCC3)n2)c2ccccc12', '%', 114),
  ('CC(=O)N1N=C(c2ccc(Cl)cc2)CC1c1cn(-c2ccccc2)nc1-c1ccc([N+](=O)[O-])cc1 (centres undefined)', '%', 118),
  ('C/C=C(/C)C(=O)OC1C=C(CO)C(=O)C(OC(=O)/C(C)=C\C)C1C(C)C (centres undefined)', '%', -18.3),
  ('CCCCN(CCCC)c1ccc(C(=O)O)cc1', '%', 107),
  ('CCOC1=C(Cl)C(=O)C(OCC)=C(Cl)C1=O', '%', 82.5),
  ('CC([C@H]1CCC2C3CCC4C[C@@H](N)CC[C@]4(C)C3CC[C@@]21C)N(C)C (some centres undefined)', '%', 21.2),
  ('COc1cc(-c2nc(/C=C3/C(=O)Nc4ccccc43)c3ccccn23)cc(OC)c1OC', '%', 52.2),
  ('COCC(=O)NNc1[nH]c(-c2ccc(OC)cc2)cc1C#N', '%', 96.9),
  ('COc1cc2ncnc(-n3ncc4cc(NC(=O)Nc5ccc(Cl)c(Cl)c5)ccc43)c2cc1OC', '%', 10.7),
  ('O=C1/C(=C\c2cn(-c3nc(N4CCOCC4)nc(N4CCOCC4)n3)c3ccccc23)c2ccccc2N1c1c(Cl)cccc1Cl', '%', 80.6),
  ('CCS(=O)(=O)N[C@@H]1O[C@H](COC(C)=O)C(OC(C)=O)[C@H](OC(C)=O)C1OC(C)=O (some centres undefined)', '%', 99.4),
  ('CCCCCSc1ccc2nc(NC(=O)OCCC)sc2c1', '%', 19),
  ('COc1ccc(/C=C/C(=O)/C=C/c2cc3ccccc3[nH]c2=O)cc1', '%', 4.13),
  ('C/C(=C\c1ccc2ccccc2c1)[N+](=O)[O-]', '%', 5.31),
  ('CCCCCCCCCCCCc1ccc([N+](CC)(CC)CC)cc1', '%', 16.3),
  ('CC(=O)/C(=C\c1c(-c2ccccc2)[nH]c2ccccc12)S(=O)(=O)c1ccccc1', '%', -53.4),
  ('COC(=O)c1ccc2[nH]c(O)c(C(=Nc3ccc(N(C)C(=O)CN4CCN(C)CC4)cc3)c3ccc(C)cc3)c2c1', '%', -32.9),
  ('CCC(CCCN1C(=O)c2ccccc2C1=O)Nc1cc(OC)cc2c(C)ccnc12 (centres undefined)', '%', 72.4);
